test system: ACHN renal; assay: NCI tumour cell line growth inhibition, 48 h
measure_name: TGI (µM)
The answer is to be given in µM; state only the numeric part.

# given_smiles, target_or_test_system, measurement
records = [
    ("CC[CH2][Sn]([Cl])([Cl])[CH2]CC.Oc1ccccc1C=NCCN=Cc1ccccc1O", "ACHN renal", 21.8),
]

Okay, now this molecule:
# molecule N#Cc1c(-c2ccccc2)cc(Nc2cccc(C(F)(F)F)c2)n2c1nc1ccccc12 ; its TGI = 11.1

====

tested on: T-47D breast; assay: NCI tumour cell line growth inhibition, 48 h
measure_name: TGI

# count of solved cases: 5
# given_smiles, measurement
measured = [
    ("Nc1nc(-c2cccc(Cl)c2)c(-c2ccc3ncccc3n2)s1", "> 25 µM"),
    ("Cc1ccc(C)c(COCCOCn2ccc(N)nc2=O)c1", "> 100 µM"),
    ("CCn1c(SCC(=O)NNC(=S)Nc2ccc(C)cc2)nc2ccccc2c1=O", "> 100 µM"),
    ("COc1cc2c(cc1OC)CCc1cc(OC)c(OC)cc1CC2", "> 100 µM"),
    ("O=C(/C=C\\n1cnc(-c2cc(C(F)(F)F)cc(C(F)(F)F)c2)n1)NNc1cnccn1", "15.7 µM"),
]

# compound c1csc(-c2cc(-c3cccs3)c(-c3ccsc3)s2)c1 ; its TGI = > 100 µM

# compound Cc1ccc2c3c(c(=O)[nH]c2c1)C1(C(C#N)=C(N)O3)c2cc(Br)ccc2-c2ccc(Br)cc21 ; its TGI = 3.78 µM

# compound COc1cc(OC)c2c(=O)c(OC)c(-c3ccc4c(c3)OCO4)oc2c1 ; its TGI = > 100 µM

====

system: A549 NSCLC; experiment: NCI tumour cell line growth inhibition, 48 h
measure_name: TGI

# compound, measurement
measured = [
    ("c1cc2c(ncc3cscc32)s1", "> 100 µM"),
    ("Cc1nc(-c2ccccc2)c(-c2ccccc2)s1", "89 µM"),
    ("CC1ON2CCCC2[C@H]1C(=O)N1C2CC3CCC2(CS1(=O)=O)C3(C)C (some centres undefined)", "> 100 µM"),
    ("Cc1ccc(NC(=O)c2sc3nc(C)c(C(O)c4ccccc4)cc3c2N)cc1 (centres undefined)", "32.7 µM"),
    ("CC(C)c1cc2c(O)c(c1)Cc1cc(C(C)C)cc(c1O)Cc1cc(C(C)C)cc(c1O)Cc1cc(C(C)C)cc(c1O)C2", "> 100 µM"),
    ("CC[C@H](C)[C@H]1O[C@]2(C=C[C@@H]1C)C[C@@H]1C[C@@H](C/C=C(\\C)[C@@H](O[C@H]3C[C@H](OC)[C@@H](O[C@H]4C[C@H](OC)[C@@H](NC)[C@H](C)O4)[C@H](C)O3)[C@@H](C)/C=C/C=C3\\CO[C@@H]4[C@H](O)C(C)=C[C@@H](C(=O)O1)[C@]34O)O2", "6.38 µM"),
]

# compound CCCCCCC(=O)C/C(=N/NC(N)=S)C(=O)NC1C2CC3CC(C2)CC1C3 (centres undefined) ; its TGI = > 100 µM

# compound N#CCc1ccc(C(C#N)/C(CCCC(=O)Nc2cccc([N+](=O)[O-])c2)=N/NC(N)=S)cc1 (centres undefined) ; its TGI = > 100 µM

# compound COc1cccc(/C=C2\C(=O)N(C(=O)c3ccc(NC(C)=O)cc3)N=C2C)c1 ; its TGI = > 100 µM

# compound Cc1nn(C(=O)Cc2ccccc2)c2c1C(c1ccc(N(C)C)cc1)SC(N)=N2 (centres undefined) ; its TGI = > 100 µM

# compound COc1ccc(-c2nnc(COc3ccc(NC(=O)Nc4ccc(Cl)c(C(F)(F)F)c4)cc3F)o2)cc1 ; its TGI = 18.7 µM

# compound NNc1nncc2n[nH]nc12 ; its TGI = > 100 µM

# compound O=[N+]([O-])c1cccc2nc3ccccc3c(NCCC[N+]3([O-])CCOCC3)c12 ; its TGI = 0.871 µM

# compound C=CCc1cc(-c2cc(CC=C)c(O)c(CNCCCl)c2)cc(CNCCCl)c1O ; its TGI = 76.1 µM
